Where do the numbers come from? From patent US20100272750A1.

- target_or_system: HLA A0202 (human)
- protocol: 125I-probe competition, purified HLA
// boundary case: IC50 equal to 50 nM maps to 0 (no); strictly smaller maps to 1 (yes)

>>> assigned_category("VAWDSVYYM (modifications not checked) [HPV18.E2.136]")
"0 (no)"
>>> assigned_category("YVVWDSIYYI (modifications not checked) [HPV45.E2.137]")
"1 (yes)"
>>> assigned_category("FIYIPLFVI (modifications not checked) [HPV31.E5.66]")
"0 (no)"
>>> assigned_category("KLLEKLLCI (modifications not checked) [HPV31.E1.272]")
"1 (yes)"
>>> assigned_category("TVYVFCFLL (modifications not checked) [HPV18.E5.51]")
"0 (no)"
>>> assigned_category("SLQDIEITCV (modifications not checked) [HPV18.E6.24]")
"1 (yes)"
>>> assigned_category("YTNWKFIYL (modifications not checked) [HPV31.E2.131]")
"1 (yes)"
>>> assigned_category("FVYIPLFLI (modifications not checked) [HPV16.E5.66]")
"0 (no)"
>>> assigned_category("KLTNKGICDL (modifications not checked) [HPV31.E6.90]")
"0 (no)"
